biological target: GST-tagged K-Ras mutant / His-tagged hSOS1 (Homo sapiens, UniProt P01116); test: HTRF assay, K-Ras mutant / SOS1 interaction; assay type: binding; settings: compound nos. 401-703; read-out: IC50 against mutant Kras
Sequence (P01116 whole entry G12D, form open): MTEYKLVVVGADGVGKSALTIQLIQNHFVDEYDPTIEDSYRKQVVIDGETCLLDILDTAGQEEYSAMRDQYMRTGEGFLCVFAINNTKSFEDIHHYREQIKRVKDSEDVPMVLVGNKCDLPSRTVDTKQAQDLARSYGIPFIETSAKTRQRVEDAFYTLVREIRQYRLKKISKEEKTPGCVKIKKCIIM
pIC50: −log10 of the molar value.
Collected pIC50 values appear next to each entry.

Answered cases to consult:
[[record]]
compound = "Nc1nc2c(-c3ccc4c(N5CC6CCC(C5)N6)nc(OC[C@@]56CCCN5C[C@H](F)C6)nc4c3F)ccc(F)c2s1 [Compound 612]"
resultvalue = "< 6.30"

[[record]]
compound = "Nc1nc2c(-c3c(Cl)cc4c(N5CCC6CNCC6C5)nc(OC[C@@]56CCCN5C[C@H](F)C6)nc4c3F)ccc(F)c2s1 (stereo partly drawn) [Compound 623]"
resultvalue = "> 6.30"


[in] Give pIC50 for Nc1nc2c(-c3c(Cl)cc4c(N5CCCC(N)CC5)nc(OC[C@@]56CCCN5C[C@H](F)C6)nc4c3F)ccc(F)c2s1 (stereo partly drawn) [Compound 431]
[out] > 6.30

* * *

target: GST-tagged K-Ras mutant / His-tagged hSOS1 (Homo sapiens); assay: HTRF assay, K-Ras mutant / SOS1 interaction; assay type: binding; conditions: compound nos. 401-703; read-out: IC50 against mutant Kras
pIC50: −log10 of the molar value.
Collected pIC50 values appear next to each entry.

[[record]]
molecule = "CN(C)CC1(COc2nc(N3C[C@H]4CC[C@@H](C3)N4)c3cc(Cl)c(-c4cc(O)cc5ccccc45)c(F)c3n2)CC1 [Compound 701]"
resultvalue = "> 6.30"

[[record]]
molecule = "N#Cc1c(N)sc2c(F)ccc(-c3c(Cl)cc4c(N5C[C@H]6CC[C@@H](C5)N6CC5COC5)nc(OC[C@@]56CCCN5C[C@H](F)C6)nc4c3F)c12 [Compound 643]"
resultvalue = "> 6.30"

[[record]]
molecule = "CN1CCC[C@H]1COc1nc(N2CCCS(=O)(=O)CC2)c2cc(Cl)c(-c3cccc4sc(N)nc34)c(F)c2n1 [Compound 475]"
resultvalue = "> 6.30"


[in] Give pIC50 for Nc1nc2c(-c3c(Cl)cc4c(N5CC6CCNCC6C5)nc(OC[C@@]56CCCN5C[C@H](F)C6)nc4c3F)ccc(F)c2s1 (some centres unmarked) [Compound 566]
[out] > 6.30

[in] Give pIC50 for CN(C)C1CN(c2nc(N3CC4CCC(C3)N4)c3cc(CCC#N)c(-c4ccc(F)c5sc(N)nc45)c(F)c3n2)C1 [Compound 516]
[out] < 6.30

[in] Give pIC50 for Fc1c(-c2ccccc2-c2ccccc2)c(Cl)cc2c(N3CCCCCC3)nc(OCC34CCCN3CCC4)nc12 [Compound 603]
[out] < 6.30

[in] Give pIC50 for Nc1nc2c(-c3c(Cl)cc4c(N5CC6CCC(C5)N6)nc(OCC5(CN6CCCC6)CC5)nc4c3F)ccc(F)c2s1 [Compound 553]
[out] > 6.30

[in] Give pIC50 for Nc1nc2c(-c3c(Cl)cc4c(N5CCC[C@@H](N)CC5)nc(OC[C@@]56CCCN5C[C@H](F)C6)nc4c3F)ccc(F)c2s1 [Compound 434]
[out] > 6.30

* * *

target: wildtype Kras / hSOS1 (Homo sapiens, UniProt P01116); construct: made in house; host or cells: E. coli BL21 (DE3); experiment: HTRF assay, wildtype Kras / SOS1 interaction; format: binding; settings: compound nos. 401-703; read-out: IC50 against wildtype Kras
Sequence (P01116 1-188 isoform P01116-2): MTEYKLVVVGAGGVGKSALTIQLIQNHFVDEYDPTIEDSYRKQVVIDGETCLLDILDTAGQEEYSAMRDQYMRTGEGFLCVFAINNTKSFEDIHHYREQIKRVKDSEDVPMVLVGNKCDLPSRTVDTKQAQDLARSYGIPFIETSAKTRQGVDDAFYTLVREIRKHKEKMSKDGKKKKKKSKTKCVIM
pIC50: −log10 of the molar value.
Collected pIC50 values appear next to each entry.

Answered cases to consult:
[[record]]
compound = "CN1CCC[C@H]1COc1nc(N2CC3CCC(C2)N3)c2cc(Cl)c(-c3cccc4sc(N)nc34)c(F)c2n1"
quantitymeasured = "pIC50"
resultvalue = "< 6.30"

[[record]]
compound = "Oc1cc(-c2cnc3c(N4CC5CCC(C4)N5)nc(OC[C@@]45CCCN4C[C@H](F)C5)nc3c2)c2ccccc2c1 (single isomer, unassigned) [Compound 610]"
quantitymeasured = "pIC50"
resultvalue = "< 6.30"

[[record]]
compound = "Fc1c(-c2cccc(-c3ccccc3)c2)c(Cl)cc2c(N3CCCCCC3)nc(OCC34CCCN3CCC4)nc12"
quantitymeasured = "pIC50"
resultvalue = "> 6.30"


[in] Give pIC50 for Fc1c(N2CCCCc3ccccc32)ccc2c(N3CCCCCC3)nc(OCC34CCCN3CCC4)nc12
[out] < 6.30

[in] Give pIC50 for N#Cc1c(N)sc2c(F)ccc(-c3c(Cl)cc4c(N5CC6CCC(C5)N6)nc(OC[C@@]56CCCN5C[C@H](F)C6)nc4c3F)c12 [Compound 638]
[out] < 6.30

[in] Give pIC50 for Nc1nc2c(-c3c(Cl)cc4c(N5CCC[C@H](N)CC5)nc(OC[C@@]56CCCN5C[C@H](F)C6)nc4c3F)ccc(F)c2s1
[out] < 6.30
